Parameter: GI50. Scope: all listed entries.
System: MV4-11 cells (FLT3-ITD-expressing AML cell line)
method-description: Cell proliferation inhibition, Alamar Blue
Format: cell-based, human
test-conditions: Homo sapiens, MV4-11, 72 hours of compound treatment, read-out: Cellular (GI50) MV4-11

Recorded results for 5 compounds are shown here.
NCCCNC(=O)c1ccc2[nH]nc(-c3nc4ccc(Br)cc4[nH]3)c2c1 [Example 28]: 10 to 100 nM
NC1CCN(CCNC(=O)c2ccc3[nH]nc(-c4nc5ccccc5[nH]4)c3c2)CC1 [Example 8]: 10 to 100 nM
CN(C)CCNC(=O)c1ccc2[nH]nc(-c3nc4ccc(F)cc4[nH]3)c2c1 [Example 35]: 10 to 100 nM
NCCCNC(=O)c1ccc2[nH]nc(-c3ncc(COc4ccccc4)[nH]3)c2c1 [Example 115]: > 1000 nM
NCCCNC(=O)c1ccc2[nH]nc(-c3ncc(-c4ccc(C(F)(F)F)cc4)[nH]3)c2c1 [Example 86]: 10 to 100 nM

Name the recorded GI50 for Cc1ccc2nc(-c3n[nH]c4ccc(C(=O)NCCCN(C)C)cc34)[nH]c2c1 [Example 12] .
< 10 nM

For the compound shown here, COCCn1c(-c2n[nH]c3ccc(C(=O)NCCCN)cc23)nc2ccc(F)cc21 [Example 106] , give the reported GI50.
> 1000 nM

GI50 lookup needed for NCCCNC(=O)c1ccc2[nH]nc(-c3ncc(-c4ccc(Cl)c(F)c4)[nH]3)c2c1 [Example 85] , thanks.
10 to 100 nM

Fill blank: measured GI50 of the compound O=C(NC1CCNCC1)c1ccc2[nH]nc(-c3nc4ccc(F)cc4[nH]3)c2c1 [Example 40] is ____.
10 to 100 nM

Find the recorded GI50 belonging to CC(=O)N1CC(CNC(=O)c2ccc3[nH]nc(-c4nc5ccc(N6CCOCC6)cc5[nH]4)c3c2)C1 [Example 61] and report it.
> 1000 nM

Given the entry N[C@H]1CC[C@H](NC(=O)c2ccc3[nH]nc(-c4nc5ccc(-c6ccco6)cc5[nH]4)c3c2)C1 [Example 80] , report its measured GI50.
< 10 nM

Which GI50 value is on record for Nc1ccc(NC(=O)c2ccc3[nH]nc(-c4nc5ccc(N6CCOCC6)cc5[nH]4)c3c2)cc1 [Example 72] ?
10 to 100 nM

What GI50 value was documented for this compound, CN1CCN(C(=O)c2ccc3[nH]nc(-c4nc(-c5ccccc5)c[nH]4)c3c2)CC1 [Example 99] ?
> 1000 nM

Data request, read-out GI50, for NCCCCNC(=O)c1ccc2[nH]nc(-c3nc4ccc(F)cc4[nH]3)c2c1 [Example 39]
100 to 1000 nM

Which value of GI50 has been reported for C[C@@H]1CN(c2ccc3nc(-c4n[nH]c5ccc(C(=O)NCCCN)cc45)[nH]c3c2)C[C@H](C)N1 [Example 19] in the records?
100 to 1000 nM

Name the reported GI50 value associated with the compound COc1ccc2nc(-c3n[nH]c4ccc(C(=O)NCCCN(C)C)cc34)[nH]c2c1 [Example 11]
< 10 nM

Name the reported GI50 value associated with the compound COc1cccc(-c2cnc(-c3n[nH]c4ccc(C(=O)NCCCN)cc34)[nH]2)c1 [Example 88]
10 to 100 nM

Report GI50 for CNC1CCN(C(=O)c2ccc3[nH]nc(-c4nc5ccc(N6CCOCC6)cc5[nH]4)c3c2)CC1 [Example 70] please.
10 to 100 nM

Please look up its GI50: CN1CCN(CCn2c(-c3n[nH]c4ccc(C(=O)NCCCN)cc34)nc3ccc(F)cc32)CC1 [Example 108]
> 1000 nM

Endpoint output: GI50 of COc1c(Cl)cc(Cl)cc1-c1cnc(-c2n[nH]c3ccc(C(=O)NCCCN)cc23)[nH]1 [Example 87] . Value?
10 to 100 nM
